Target Or Test System: FGF14:Nav1.6 C-tail complex (Homo sapiens, UniProt Q92915+Q9UQD0)
Construct: polymerase chain reaction (PCR) amplification of the FGF14 open reading frame (nt 1–855); C-terminal fragment of Nav1.6 (amino acids 1763–1976) fused with CD4ΔC-tail (amino acids 1–395); expressed in transfected cells
Sequence (Q92915 1-252 isoform Q92915-2): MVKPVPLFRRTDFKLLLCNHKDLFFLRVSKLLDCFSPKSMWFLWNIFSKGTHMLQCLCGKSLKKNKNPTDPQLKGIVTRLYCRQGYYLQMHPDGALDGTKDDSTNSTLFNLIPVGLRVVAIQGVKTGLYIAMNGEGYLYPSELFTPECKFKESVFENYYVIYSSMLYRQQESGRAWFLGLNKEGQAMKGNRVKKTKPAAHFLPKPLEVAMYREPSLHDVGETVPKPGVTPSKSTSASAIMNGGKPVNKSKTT
Sequence (Q9UQD0 1763-1976 limits assumed): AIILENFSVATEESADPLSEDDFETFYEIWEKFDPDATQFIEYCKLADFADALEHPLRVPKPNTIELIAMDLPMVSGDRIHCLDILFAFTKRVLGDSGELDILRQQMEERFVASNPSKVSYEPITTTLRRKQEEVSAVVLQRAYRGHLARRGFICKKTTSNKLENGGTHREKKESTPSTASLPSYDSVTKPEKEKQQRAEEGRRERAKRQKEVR
Measurement Description: Split-luciferase complementation assay (LCA) in Clone V double stable HEK293 cells
Assay type: cell-based
Study Conditions: CC_NCI screening; average of Set 1 and Set 2; normalized to 0.3% DMSO controls
Record form. Attribute: Split Luciferase Assay %Lum Avg. Fill in for each entry.
Give bare numbers, in %.

Use these answered entries as a reference point.
Molecule: OCC1OC(O)CC(O)C1O (centres unmarked)
Endpoint Value: 117.36
//
Molecule: CS(=O)(=O)CCNCc1ccc(-c2ccc3ncnc(Nc4ccc(OCc5cccc(F)c5)c(Cl)c4)c3c2)o1
Endpoint Value: 107.26
//
Molecule: CNC(=O)c1cc(Oc2ccc(NC(=O)Nc3ccc(Cl)c(C(F)(F)F)c3)c(F)c2)ccn1
Endpoint Value: 45.83
//
Molecule: C[C@]12CC[C@H](O)CC1=CC[C@@H]1[C@@H]2CC[C@]2(C)C(c3cccnc3)=CC[C@@H]12
Endpoint Value: 132.16
//
Molecule: Cl.Cn1c(CCCC(=O)O)nc2cc(N(CCCl)CCCl)ccc21 [Bendamustine hydrochloride]
Endpoint Value: 119.58
//
Molecule: CC(C)C[C@H](NC(=O)[C@H](Cc1ccccc1)NC(=O)c1cnccn1)B(O)O [BORTEZOMIB]
Endpoint Value: 70.02
//
Molecule: COC(=O)c1ccc2c(c1)NC(=O)/C2=C(\Nc1ccc(N(C)C(=O)CN2CCN(C)CC2)cc1)c1ccccc1
Endpoint Value: 121.85

For the next question, use this molecule.
Return the recorded Split Luciferase Assay %Lum Avg value; entry: O=c1cc(-c2cccc3c2Sc2ccccc2S3)oc(N2CCOCC2)c1
75.52
